Task for the reader: assign each of the following molecules its reported HEMATOCRIT.
species: Rattus norvegicus; experiment: DrugMatrix - Regimen: Daily Repeat; assay type: toxicity, organism-based, Sprague-Dawley; set-up: regimen Daily Repeat, gender Male, age 6-8 weeks; settings: in vivo, po, 0 mg/kg, 72 h, tissue Blood, route oral GAVAGE, dose level Control, time 3 day, […]
Give the number; % is assumed, so skip it.

Q. State the recorded HEMATOCRIT for this entry: C[C@H]1O[C@@H](O[C@H]2[C@@H](O)C[C@H](O[C@H]3[C@@H](O)C[C@H](O[C@H]4CC[C@@]5(C)[C@H](CC[C@@H]6[C@@H]5C[C@@H](O)[C@]5(C)[C@@H](C7=CC(=O)OC7)CC[C@]65O)C4)O[C@@H]3C)O[C@@H]2C)C[C@H](O)[C@@H]1O
A. 34.07

Q. State the recorded HEMATOCRIT for this entry: Cc1ccc(-c2cc(C(F)(F)F)nn2-c2ccc(S(N)(=O)=O)cc2)cc1
A. 33.67

Q. State the recorded HEMATOCRIT for this entry: CC(C)(Oc1ccc(Cl)cc1)C(=O)O
A. 33.68

Q. State the recorded HEMATOCRIT for this entry: CN(C)c1nc(N(C)C)nc(N(C)C)n1
A. 35.22

Q. State the recorded HEMATOCRIT for this entry: CC(C)C(=O)Nc1ccc([N+](=O)[O-])c(C(F)(F)F)c1 [FLUTAMIDE]
A. 33.88

###

species on record: Rattus norvegicus; test: DrugMatrix - Regimen: Daily Repeat; format: toxicity, organism-based, Sprague-Dawley; parameters: regimen Daily Repeat, gender Male, age 6-8 weeks; settings: in vivo, po, 0 mg/kg, 120 h, tissue Blood, route oral GAVAGE, dose level Control, time 5 day, vehicle 100 % WATER
Task for the reader: assign each of the following compounds its reported LYMPHOCYTE.
Give the number; % is assumed, so skip it.

Q. State the recorded LYMPHOCYTE for this entry: c1ccc([C@H]2CN3CCSC3=N2)cc1
A. 89.5

Q. State the recorded LYMPHOCYTE for this entry: CC(O)CO (centres undefined)
A. 92

Q. State the recorded LYMPHOCYTE for this entry: Cn1cc[nH]c1=S
A. 92.17

Q. State the recorded LYMPHOCYTE for this entry: C=CCC1(C(C)CCC)C(=O)NC(=O)NC1=O (centres undefined)
A. 90.33

Q. State the recorded LYMPHOCYTE for this entry: C[C@H]1c2cccc(O)c2C(=O)C2=C(O)[C@]3(O)C(=O)C(C(N)=O)=C(O)[C@@H](N(C)C)[C@@H]3[C@@H](O)[C@@H]21.O
A. 89.83

Q. State the recorded LYMPHOCYTE for this entry: Clc1cccc(Cl)c1N=C1NCCN1
A. 87.33

Q. State the recorded LYMPHOCYTE for this entry: COc1cc2nc(N3CCN(C(=O)C4COc5ccccc5O4)CC3)nc(N)c2cc1OC (centres undefined)
A. 89.83

Q. State the recorded LYMPHOCYTE for this entry: Cc1onc(-c2ccccc2Cl)c1C(=O)N[C@@H]1C(=O)N2[C@@H]1SC(C)(C)[C@@H]2C(=O)O
A. 92

Q. State the recorded LYMPHOCYTE for this entry: C[C@H](CS)C(=O)N1CCC[C@H]1C(=O)O
A. 90.67

###

Task for the reader: assign each of the following compounds its reported TOTAL BILIRUBIN.
species: Rattus norvegicus; test: DrugMatrix - Regimen: Daily Repeat; assay type: toxicity, organism-based, Sprague-Dawley; parameters: regimen Daily Repeat, gender Male, age 6-8 weeks; conditions: in vivo, po, 0 mg/kg, 72 h, tissue Plasma, route oral GAVAGE, dose level Control, time 3 day, vehicle .5 % CMC
Give the number; mg/dL is assumed, so skip it.

Q. State the recorded TOTAL BILIRUBIN for this entry: CN1CCN(CCCN2c3ccccc3Sc3ccc(Cl)cc32)CC1
A. 0.2

Q. State the recorded TOTAL BILIRUBIN for this entry: C1CCC(C(CC2CCCCN2)C2CCCCC2)CC1 (stereo not given)
A. 0.4

Q. State the recorded TOTAL BILIRUBIN for this entry: CCn1cc(C(=O)O)c(=O)c2cc(F)c(N3CCNCC3)cc21
A. 0.18

Q. State the recorded TOTAL BILIRUBIN for this entry: ClC(Br)Br
A. 0.18

Q. State the recorded TOTAL BILIRUBIN for this entry: COc1nc(C)nc(Cl)c1N=C1NCCN1
A. 0.18

Q. State the recorded TOTAL BILIRUBIN for this entry: Nc1ccn([C@H]2CC[C@@H](CO)O2)c(=O)n1
A. 0.1

Q. State the recorded TOTAL BILIRUBIN for this entry: CC1CC(OC(=O)C(O)c2ccccc2)CC(C)(C)C1 (stereo not given) [CYCLANDELATE]
A. 0.52

Q. State the recorded TOTAL BILIRUBIN for this entry: Cc1nc2n(c(=O)c1CCN1CCC(c3noc4cc(F)ccc34)CC1)CCCC2
A. 0.78

Q. State the recorded TOTAL BILIRUBIN for this entry: CCOP(=S)(OCC)Oc1nc(Cl)c(Cl)cc1Cl
A. 0.42

Q. State the recorded TOTAL BILIRUBIN for this entry: N=C(N)NCCN1CCCCCCC1
A. 0.52

Data credit: ChEMBL document CHEMBL3885881
